A collection of compounds and their measured BTK_I_binding pIC50
# study system: unphosphorylated-BTK kinase domain (UP-BTK), GST-tagged human BTK (389-659aa) (Homo sapiens (Human), UniProt Q06187)
# Sequence (Q06187 389-659): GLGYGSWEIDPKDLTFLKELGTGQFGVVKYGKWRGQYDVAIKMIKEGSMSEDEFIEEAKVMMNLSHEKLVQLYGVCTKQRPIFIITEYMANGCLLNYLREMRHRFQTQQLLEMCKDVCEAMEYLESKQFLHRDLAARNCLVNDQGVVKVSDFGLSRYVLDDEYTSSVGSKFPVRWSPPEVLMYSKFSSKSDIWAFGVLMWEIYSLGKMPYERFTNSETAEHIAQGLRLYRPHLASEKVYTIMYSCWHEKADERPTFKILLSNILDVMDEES
# test name: BTK kinase Lanthascreen binding assay
# conditions: pIC50 = negative log of the IC50 in molar; 60 minutes incubation, 50 nM Tracer 236
observable: BTK_I_binding pIC50

1) Cc1cc(Oc2ccccc2)ccc1N1C(=O)Nc2c(C(=O)N[C@H]3CNC[C@H](F)C3)sc3nccc1c23 ... 7.0
2) Cc1cc(Oc2ccccc2)ccc1N1C(=O)Nc2c(C(=O)N[C@@H]3CCCNC3)sc3nccc1c23 (single isomer, unassigned) ... 7.3
3) CO[C@H]1CN(C)C[C@@H]1NC(=O)c1sc2nccc3c2c1NC(=O)N3c1ccc(Oc2ccccc2)cc1C ... 6.6
4) C/C=C/C(=O)N1CCC[C@@H](NC(=O)c2sc3nccc4c3c2NC(=O)N4c2ccc(Oc3ccccc3)cc2C)C1 (single isomer, unassigned) [Example 100] ... 7.1

###

Reported BTK_I_binding pIC50 values follow for various compounds
# study system: unphosphorylated-BTK kinase domain (UP-BTK), GST-tagged human BTK (389-659aa) (Homo sapiens (Human), UniProt Q06187)
# test name: BTK kinase Lanthascreen binding assay
# conditions: unphosphorylated-BTK kinase domain, 50 nM Tracer 236, 60 minutes; pIC50 = negative log of the IC50 in molar
observable: BTK_I_binding pIC50

1) Cc1cc(OC2CCCC2)ccc1N1C(=O)Nc2c(C(=O)N[C@@H]3CCCN(C)C3)sc3nccc1c23 [Example 297] ... 6.1
2) C/C=C/C(=O)N1CCC[C@@H](NC(=O)c2sc3nccc4c3c2NC(=O)N4c2ccc(Oc3ccccc3)cc2C)C1 (single isomer, unassigned) [Example 474] ... 7.6
3) Cc1cc(Oc2ccccc2)ccc1N1C(=O)Nc2c(C(=O)N[C@H]3CCOC3)sc3nccc1c23 (single isomer, unassigned) [Example 323] ... 5.7

###

BTK_I_binding pIC50 reference
# study system: unphosphorylated-BTK kinase domain (UP-BTK), GST-tagged human BTK (389-659aa) (Homo sapiens (Human), UniProt Q06187)
# test name: BTK kinase Lanthascreen binding assay
# conditions: Lanthascreen tracer competition, 60 minutes incubation; pIC50 = negative log of the IC50 in molar
observable: BTK_I_binding pIC50

1. Cc1cc(Oc2ccccc2)ccc1N1C(=O)Nc2c(C(=O)N[C@@H]3CCCN(C(=O)C(C#N)=CC4(C)COC4)C3)sc3nccc1c23 (single isomer, unassigned) ... 7.7
2. O=C(N[C@@H]1CCCNC1)c1sc2nccc3c2c1NC(=O)N3c1cncc(-c2ccccc2)c1 ... 6.0
3. C=CC(=O)N1CCN(c2sc3nccc4c3c2NC(=O)N4c2ccc(Oc3ccccc3)cc2C)CC1 ... 6.3
4. C=CC(=O)N1CCC[C@@H](NC(=O)c2sc3nccc4c3c2NC(=O)N4c2ccc(Oc3cccc(COc4ccccc4C#N)c3)cc2C)C1 ... 7.0
5. COc1ccccc1Oc1ccc(N2C(=O)Nc3c(C(=O)NC4CCCN(C(=O)/C(C#N)=C/C(C)(C)C)C4)sc4nccc2c34)c(C)c1 (centres unmarked) ... 6.9
6. C=CC(=O)N1CCC[C@@H](NC(=O)c2sc3nccc4c3c2NC(=O)N4c2ccc(Oc3cccc(C)n3)cc2C)C1 ... 7.7
7. CC(C)(C)OC(=O)N1CCC[C@@H](NC(=O)c2sc3nccc4c3c2NC(=O)N4c2ccc(Oc3ccccc3)cc2)C1 ... 5.8
8. Cc1cc(Oc2ccccc2)ccc1N1C(=O)Nc2c(C(=O)NC3CCCN(C)C3)sc3nccc1c23 (centres unmarked) ... 6.8
9. N#C/C(=C\C1CC1)C(=O)N1CCC[C@@H](NC(=O)c2sc3nccc4c3c2NC(=O)N4c2cccc(Oc3ccccc3)c2)C1 ... 7.8
10. CCC(=O)N1CCCC(C(=O)Nc2sc3nccc4c3c2NC(=O)N4c2ccc(Oc3ccccc3)cc2C)C1 (centres unmarked) ... 5.9
11. Cc1cc(OC2CCCC2)ncc1N1C(=O)Nc2c(C(=O)N[C@@H]3CCCNC3)sc3nccc1c23 (single isomer, unassigned) [Example 761] ... 7.1
12. COc1ccc(N2C(=O)Nc3c(C(=O)N[C@@H]4CCCN(C(=O)/C(C#N)=C/C5CC5)C4)sc4nccc2c34)c(C)c1 ... 7.3
13. C=CC(=O)N1C[C@H](NC(=O)c2sc3nccc4c3c2NC(=O)N4c2cccc(-c3cccc(F)c3F)c2)C[C@H](OC)C1 ... 7.8
14. CN(C)C/C=C/C(=O)N1CC[C@@H](NC(=O)c2sc3nccc4c3c2NC(=O)N4c2ccc(Oc3ccccc3)c(Cl)c2)C1 ... 7.8
15. C=CC(=O)N1CCC[C@@H](NC(=O)c2sc3nccc4c3c2NC(=O)N4c2ccnc(C3CCC3)c2)C1 ... 7.5
16. Cc1ccc(Oc2ccccc2)cc1N1C(=O)Nc2c(C(=O)N[C@@H]3CCCN(C(=O)/C(C#N)=C/C4CC4)C3)sc3nccc1c23 [Example 859] ... 7.4
17. Cc1cc(OCC(C)C)ncc1N1C(=O)Nc2c(C(=O)N[C@@H]3CCCNC3)sc3nccc1c23 (single isomer, unassigned) [Example 759] ... 6.7
18. C=CC(=O)N1CCC[C@@H](NC(=O)c2sc3nccc4c3c2NC(=O)N4c2ccc(OC3CCC3)nc2)C1 ... 7.5
19. Cc1cc(Oc2ccccc2)ccc1N1C(=O)Nc2c(C(=O)N[C@@H]3CCCN(C(=O)/C=C/CN4CCCC4)C3)sc3nccc1c23 [Example 867] ... 7.3
20. Cc1cc(C(=O)Nc2cc(C(F)(F)F)ccn2)ccc1N1C(=O)Nc2c(C(=O)N[C@@H]3CCCN(C(=O)/C(C#N)=C/C4CC4)C3)sc3nccc1c23 ... 8.0

###

# study system: unphosphorylated-BTK kinase domain (UP-BTK), GST-tagged human BTK (389-659aa) (Homo sapiens (Human))
# test name: BTK kinase Lanthascreen binding assay
# conditions: unphosphorylated-BTK kinase domain, 60 minutes incubation, 50 nM Tracer 236; pIC50 = negative log of the IC50 in molar
Reported BTK_I_binding pIC50 values for a set of compounds
observable: BTK_I_binding pIC50

1. Cc1cc(Oc2ccccc2)ccc1N1C(=O)Nc2c(C(=O)N[C@H]3CCN(C(=O)/C(C#N)=C/C4CC4)C3)sc3nccc1c23 [Example 905] ... 6.7
2. COc1ccc(N2C(=O)Nc3c(C(=O)N[C@H]4CCCN(C(=O)/C(C#N)=C/C5CC5)C4)sc4nccc2c34)c(C)c1 [Example 946] ... 5.4
3. O=C(N[C@@H]1CCN(C(=O)c2ccccc2)C1)c1sc2nccc3c2c1NC(=O)N3c1ccc(Oc2ccccc2)cc1 [Example 914] ... 6.5

###

We begin with a simple list: items and their reported IC50.
# study system: unphosphorylated-BTK kinase domain (UP-BTK), GST-tagged human BTK (389-659aa) (Homo sapiens (Human), UniProt Q06187)
# test name: BTK kinase Lanthascreen binding assay
# conditions: Lanthascreen tracer competition, 60 minutes incubation; pIC50 = negative log of the IC50 in molar; read-out: BTK_I_binding pIC50 (converted)
observable: IC50 (nM)

1. O=C(N[C@@H]1CCCNC1)c1sc2nccc3c2c1NC(=O)N3c1cccc(OC2CCCC2)c1 ... 794
2. Cc1cc(Oc2ccccc2)ccc1N1C(=O)Nc2c(C(=O)N[C@@H]3CCCN(C(=O)/C=C/CN4C[C@@H]5OCCO[C@@H]5C4)C3)sc3nccc1c23 (single isomer, unassigned) ... 31.6
3. C=CC(=O)N1CC[C@@H](NC(=O)c2sc3nccc4c3c2NC(=O)N4c2ccc(Oc3ccccc3)cn2)C1 ... 31.6
4. Cc1cc(Oc2ccccc2)ncc1N1C(=O)Nc2c(C(=O)N[C@@H]3COC[C@@H]3N)sc3nccc1c23 (racemic) ... 200

###

# study system: unphosphorylated-BTK kinase domain (UP-BTK), GST-tagged human BTK (389-659aa) (Homo sapiens (Human))
# test name: BTK kinase Lanthascreen binding assay
# conditions: unphosphorylated-BTK kinase domain, 60 minutes incubation, 50 nM Tracer 236; pIC50 = negative log of the IC50 in molar
observable: BTK_I_binding pIC50

1) O=C(NCCN1CCCC1)c1sc2nccc3c2c1NC(=O)N3c1ccc(Oc2ccccc2)cc1 ... 6.2
2) CN1CCN(CCNC(=O)c2sc3nccc4c3c2NC(=O)N4c2ccc(Oc3ccccc3)cc2)CC1 ... 6.0
3) C=CC(=O)N1CCC[C@@H](NC(=O)c2sc3nccc4c3c2NC(=O)N4c2cc(Cl)cc(Cl)c2)C1 ... 5.8
4) Cc1ccc(N2C(=O)Nc3c(C(=O)N[C@@H]4CCCNC4)sc4nccc2c34)cc1 ... 5.1
5) Cc1cc(Oc2ccccc2)ccc1N1C(=O)Nc2c(C(=O)N[C@H]3CCCNC3)sc3nccc1c23 ... 6.5
6) Cc1cc(Oc2ccccc2)ccc1N1C(=O)Nc2c(C(=O)NC3CCN(C(=O)CC#N)CC3)sc3nccc1c23 ... 5.6
7) O=C(N[C@@H]1CCN(Cc2ccccc2)C1)c1sc2nccc3c2c1NC(=O)N3c1ccc(Oc2ccccc2)cc1 ... 6.3

Where these numbers come from: patent US10800792B2
